target: hNGAL (human lipocalin 2, parent wild type SEQ ID NO: 1) mutein SEQ ID NO: 43 (Homo sapiens, UniProt P80188, A60L/C107S/D97K/I61A/K154W/K93Q/L123Q/L56E/L90R/N116L/Q48H/Q69M/R101V/S147V/S88E/W99D/Y120D/Y126E/Y72M); test: Solution binding ELISA
Sequence (P80188 other isoform, or with tags, fused parts or gaps with the stated changes): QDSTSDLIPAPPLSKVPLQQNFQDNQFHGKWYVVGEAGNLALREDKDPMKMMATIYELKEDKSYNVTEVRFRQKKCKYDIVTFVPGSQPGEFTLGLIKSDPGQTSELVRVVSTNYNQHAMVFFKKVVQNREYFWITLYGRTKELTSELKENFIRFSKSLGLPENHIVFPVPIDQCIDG
Assay Metric: IC50 (nM)
Numeric answer only, unit nM assumed.

Solved cases (3 shown):
{"columns": ["Compound", "IC50 [nM]"],
 "data": [
  ["NC(=O)CC[C@H](NC(=O)[C@H](CCCN([O-])C=O)NC(=O)[C@@H]1CCN=C([C@@H](CO)NC(=O)[C@@H]2CCNc3c(NC(=O)C(=O)CCC(=O)O)cc4cc([O-])c([O-])cc4[n+]32)N1)C(=O)N[C@H](CCC(N)=O)C(=O)N[C@H](CCCN([O-])C=O)C(=O)NCC(=O)O.[Fe+3] [Pvd III aKG (+Fe), Pvd type III α-ketoglutaryl]", 1.4],
  ["NC(=O)CCC(=O)Nc1cc2cc([O-])c([O-])cc2[n+]2c1NCC[C@H]2C(=O)N[C@H](CO)C1=NCC[C@@H](C(=O)N[C@@H](CCCN([O-])C=O)C(=O)N[C@@H](CCC(N)=O)C(=O)N[C@H](CCC(N)=O)C(=O)N[C@H](CCCN([O-])C=O)C(=O)NCC(=O)O)N1.[Fe+3] [Pvd III sa (+Fe), Pvd type III succinamide]", 0.25],
  ["NC(=O)CCC(=O)Nc1cc2cc(O)c(O)cc2[n+]2c1NCC[C@H]2C(=O)N[C@H](CO)C1=NCC[C@@H](C(=O)N[C@@H](CCCN(O)C=O)C(=O)N[C@@H](CCC(N)=O)C(=O)N[C@H](CCC(N)=O)C(=O)N[C@H](CCCN(O)C=O)C(=O)NCC(=O)O)N1 [Pvd III sa (−Fe), Pvd type III succinamide]", 0.46]
]}

Inquiry: // IC50 lookup, key: NC(=O)CC[C@H](NC(=O)[C@H](CCCN(O)C=O)NC(=O)[C@@H]1CCN=C([C@@H](CO)NC(=O)[C@@H]2CCNc3c(NC(=O)C(=O)CCC(=O)O)cc4cc(O)c(O)cc4[n+]32)N1)C(=O)N[C@H](CCC(N)=O)C(=O)N[C@H](CCCN(O)C=O)C(=O)NCC(=O)O [Pvd III aKG (−Fe), Pvd type III α-ketoglutaryl]
Reply text: 1.9
